method: Cytotoxicity (resazurin) against cultured HaCaT noncancerous cells
test context: human
quantity kind: CC50 at 72 h
In your response, the unit should come after the numeric value.

q: # return recorded CC50 at 72 h for input CC[C@@]1(O)C(=O)OCc2c1cc1n(c2=O)Cc2cc3ccccc3nc2-1 [CPT, Camptothecin]
a: 570 nM
